- assay.summary: Solubility experiment in simulated gastrointestinal fluid
- Assay type: physicochemical
- condition.notes: simulated gastric fluid, thermodynamic from solid; simulated gastrointestinal fluid pH 1.2, 37 °C, 100 rpm; HES–PIP maximum at 8 h

item.smiles	solubility (µg/mL)
COc1ccc([C@@H]2CC(=O)c3c(O)cc(O)cc3O2)cc1O	23.1

----------
- assay.summary: Bioavailability / pharmacokinetics after oral gavage in rats
- Type: in vivo
- condition.notes: Sprague-Dawley, 80 mg/kg, HES in rat plasma, equivalent to 80 mg HES/kg, suspension in water, n = 6

item.smiles	Cmax (ng/mL)
COc1ccc([C@@H]2CC(=O)c3c(O)cc(O)cc3O2)cc1O	120

----------
- assay.summary: Bioavailability / pharmacokinetics after oral gavage in rats
- Type: in vivo
- condition.notes: Sprague-Dawley, 80 mg/kg, HES in rat plasma, equivalent to 80 mg HES/kg, n = 6, read-out: MRT(0–t)

item.smiles	MRT last / h
COc1ccc([C@@H]2CC(=O)c3c(O)cc(O)cc3O2)cc1O	5.86
